- Tested on: cell lines from the Cancer Cell Line Encyclopedia (CCLE)
- measurement description: High-throughput cell viability assay, CCLE cell line panel (n = 356)
- Format: cell-based, human
- condition notes: Homo sapiens, HSC-4, HSC-4, TP53 MUT
test readout: IC50

Input line: I am curious: what IC50 value has been reported for COc1cc2c(cc1OC(C)C)[C@H](c1ccc(Cl)cc1)N(c1ccc(N(C)C[C@H]3CC[C@H](N4CCNC(=O)C4)CC3)cc1)C(=O)C2 [NVP-CFC218] ?
Output line: > 8 µM

* * *

- Test system: cell lines from the Cancer Cell Line Encyclopedia (CCLE)
- measurement description: High-throughput cell viability assay, CCLE cell line panel (n = 356)
- Type: cell-based, human
- condition notes: Homo sapiens, G-361, G-361, TP53 WT
test readout: pIC50
Keep in mind that pIC50 stands for -log10 of concentration in molar terms.

Input line: I am curious: what pIC50 value has been reported for COc1cc2c(cc1OC(C)C)[C@H](c1ccc(Cl)cc1)N(c1ccc(N(C)C[C@H]3CC[C@H](N4CCNC(=O)C4)CC3)cc1)C(=O)C2 ?
Output line: 5.50
